target: T1, HLA-A2 / homologous peptide CD163 complex on T2 cells (human); experiment: flow cytometry on peptide-pulsed T2 cells, scFv 100 nM;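 also: scFv binding read as gMFI and normalized to the level of HLA/peptide complex displayed on T2 cells, with homologous 9-mer peptides used to probe specificity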
T1 construct: whole, on cells; also called T2 cells supplemented with homologous peptide CD163
Each record here notes measured standardized gMFI.
MEASURE: standardized gMFI

BINDER	MEASURE	OBSERVED RESULT
NYA-2035 (scFv) scFv: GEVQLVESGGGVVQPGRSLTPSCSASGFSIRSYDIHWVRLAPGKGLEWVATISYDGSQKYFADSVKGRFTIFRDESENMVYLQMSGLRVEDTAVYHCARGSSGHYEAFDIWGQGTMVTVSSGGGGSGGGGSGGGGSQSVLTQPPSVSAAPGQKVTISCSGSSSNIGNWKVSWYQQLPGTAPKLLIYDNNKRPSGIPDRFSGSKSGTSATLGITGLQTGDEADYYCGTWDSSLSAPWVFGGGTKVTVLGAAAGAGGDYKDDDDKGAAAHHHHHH	standardized gMFI	0.48
NYA-1163 (scFv) scFv: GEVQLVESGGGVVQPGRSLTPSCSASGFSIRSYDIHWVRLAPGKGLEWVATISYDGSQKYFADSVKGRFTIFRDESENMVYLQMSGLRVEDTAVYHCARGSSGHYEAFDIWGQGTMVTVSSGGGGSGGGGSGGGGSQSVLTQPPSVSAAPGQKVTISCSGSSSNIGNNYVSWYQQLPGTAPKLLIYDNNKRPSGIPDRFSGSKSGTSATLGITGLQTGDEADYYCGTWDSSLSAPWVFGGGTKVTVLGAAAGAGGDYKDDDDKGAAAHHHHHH	standardized gMFI	0.46
NYC-0003 (scFv, not shown: small tags and cut ends, also called 3M4E5 scFv; NYC-0003 tag adduct) scFv: EVQLLESGGGLVQPGGSLRLSCAASGFTFSTYQMSWVRQAPGKGLEWVSGIVSSGGSTAYADSVKGRFTISRDNSKNTLYLQMNSLRAEDTAVYYCAGELLPYYGMDVWGQGTTVTVSSGGGGSGGGGSGGGGSQSELTQPRSVSGSPGQSVTISCTGTSRDVGGYNYVSWYQQHPGKAPKLIIHDVIERSSGVPDRFSGSKSGNTASLTISGLQAEDEADYYCWSFAGSYYVFGTGTDVTVL	standardized gMFI	1.08
NYA-2045 (scFv, also called NYA-2045 tag adduct) scFv: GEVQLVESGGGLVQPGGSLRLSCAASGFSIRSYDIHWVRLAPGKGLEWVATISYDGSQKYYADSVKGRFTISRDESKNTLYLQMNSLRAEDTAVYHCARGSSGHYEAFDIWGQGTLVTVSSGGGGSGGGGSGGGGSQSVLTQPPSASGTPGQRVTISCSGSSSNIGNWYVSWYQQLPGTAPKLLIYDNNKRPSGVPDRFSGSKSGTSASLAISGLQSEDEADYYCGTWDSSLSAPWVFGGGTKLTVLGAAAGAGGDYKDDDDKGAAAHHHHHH	standardized gMFI	0.48
